Tested on: RNA3WJ_0.0.0_5IB_3FAM (3WJ_0.0.0_5IB_3FAM RNA construct)
assay-procedure: Thermal shift binding assay
applied-conditions: RNA sequence 3WJ_0.0.0_5IB_FAM; melting temperature in presence of compound
Where a name gives a salt, the structure may show the parent alone.
measurement-label: Melt. Temp. with cmpd (°C)

molecule="N[C@H](Cc1c[nH]cn1)C(=O)Nc1ccc2c(c1)C1c3cc(NC(=O)[C@H](N)Cc4c[nH]cn4)ccc3C2c2ccc(NC(=O)[C@H](N)Cc3cnc[nH]3)cc21 [ARK000018, hydrochloride]" experimental_result=60.8
molecule="CC(C)(C)OC(=O)NCCCC[C@H](NC(=O)OC(C)(C)C)C(=O)Nc1ccc2c(c1)C1(CCC(=O)NCCOCCOCCN)c3cc(NC(=O)[C@H](CCCCNC(=O)OC(C)(C)C)NC(=O)OC(C)(C)C)ccc3C2c2ccc(NC(=O)[C@H](CCCCNC(=O)OC(C)(C)C)NC(=O)OC(C)(C)C)cc21 [ARK000022]" experimental_result=60.2
molecule="N[C@@H](Cc1c[nH]cn1)C(=O)Nc1ccc2c(c1)C1c3cc(NC(=O)[C@@H](N)Cc4c[nH]cn4)ccc3C2c2ccc(NC(=O)[C@@H](N)Cc3cnc[nH]3)cc21 [ARK000017]" experimental_result=60.6
molecule="CC1(C)CC(Oc2ccc(-c3ccc(-c4cn[nH]c4)cc3O)nn2)CC(C)(C)N1 [ARK000010]" experimental_result=61.4
molecule="CN(CCOCCOCCOCCNC(=O)CCC12c3cc(NC(=O)CCCCCCCN)ccc3C(c3ccc(NC(=O)CCCCCCCN)cc31)c1ccc(NC(=O)CCCCCCCN)cc12)C(=O)[C@@H]1C[C@H](N=[N+]=[N-])CN1C(=O)COc1ccc2c(=O)oc(=O)n(C)c2c1 [ARK000026]" experimental_result=60.9

###

System: RNA3WJ_0.0.0_5IB_3FAM (3WJ_0.0.0_5IB_3FAM RNA construct)
assay-procedure: Thermal shift binding assay
applied-conditions: RNA sequence 3WJ_0.0.0_5IB_FAM; melting temperature in presence of compound
Where a name gives a salt, the structure may show the parent alone.
measurement-label: Melt. Temp. with cmpd (°C)

compound=CN(CCOCCN(C)C(=O)[C@@H]1C[C@H](N=[N+]=[N-])CN1C(=O)c1ccc2c(=O)oc(=O)[nH]c2c1)C(=O)CCC12c3cc(NC(=O)CCCCCCCN)ccc3C(c3ccc(NC(=O)CCCCCCCN)cc31)c1ccc(NC(=O)CCCCCCCN)cc12 experimental_result=60.2
compound=O=C(O)CCC12C3=C(CCNC3)C(c3ccccc31)c1ccccc12 experimental_result=60.0
compound=CN(CCOCCN(C)C(=O)[C@@H]1C[C@H](N=[N+]=[N-])CN1C(=O)COc1ccc2c(=O)oc(=O)n(C)c2c1)C(=O)CCC12c3cc(NC(=O)CCCCCCCN)ccc3C(c3ccc(NC(=O)CCCCCCCN)cc31)c1ccc(NC(=O)CCCCCCCN)cc12 experimental_result=60.7
compound="[N-]=[N+]=NC[C@H]1O[C@H](O[C@@H]2[C@@H](O)[C@H](O[C@H]3O[C@H](CN)[C@@H](O)[C@H](O)[C@H]3O)[C@@H](N)C[C@H]2N)[C@H](O)[C@@H](N)[C@@H]1O [Ark000007, 6″-Azido-Kanamycin a Hydrochloride Salt]" experimental_result=65.6
compound=C#CCCCC(=O)NC[C@H]1O[C@H](O[C@H]2[C@H](O)[C@@H](O[C@H]3O[C@H](CO)[C@@H](O)[C@H](N)[C@H]3O)[C@H](N)C[C@@H]2N)[C@H](O)[C@@H](O)[C@@H]1O experimental_result=61.8
compound=CN(CCOCCOCCNC(=O)CCC12c3cc(NC(=O)CCCCCCCN)ccc3C(c3ccc(NC(=O)CCCCCCCN)cc31)c1ccc(NC(=O)CCCCCCCN)cc12)C(=O)[C@@H]1C[C@H](N=[N+]=[N-])CN1C(=O)c1ccc(S(=O)(=O)F)cc1 experimental_result=84.1
compound=NCCCCCCCNC(=O)c1ccc2c(c1)C1c3cc(C(=O)NCCCCCCCN)ccc3C2c2ccc(C(=O)NCCCCCCCN)cc21 experimental_result=61.5

###

System: RNA3WJ_0.0.0_5IB_3FAM (3WJ_0.0.0_5IB_3FAM RNA construct)
assay-procedure: Thermal shift binding assay
applied-conditions: 1 μM RNA, 8 μM compound, 10 mM CacoK pH 7.2, 30 mM NaCl
Counter-ions that a name gives are not always drawn.
measurement-label: Temp. Shift

Some molecules with recorded Temp. Shift:
molecule="[N-]=[N+]=NC[C@H]1O[C@H](O[C@@H]2[C@@H](O)[C@H](O[C@H]3O[C@H](CN)[C@@H](O)[C@H](O)[C@H]3O)[C@@H](N)C[C@H]2N)[C@H](O)[C@@H](N)[C@@H]1O [Ark000007, 6″-Azido-Kanamycin a Hydrochloride Salt]" experimental_result="~5 °C"
molecule="CN(CCOCCOCCOCCNC(=O)CCC12c3cc(NC(=O)CCCCCCCN)ccc3C(c3ccc(NC(=O)CCCCCCCN)cc31)c1ccc(NC(=O)CCCCCCCN)cc12)C(=O)[C@@H]1C[C@H](N=[N+]=[N-])CN1C(=O)c1ccc(S(=O)(=O)F)cc1 [ARK000032]" experimental_result="+15.0 °C"

Query molecule follows.
Fill in: RNA3WJ_0.0.0_5IB_3FAM (3WJ_0.0.0_5IB_3FAM RNA construct) Temp. Shift for CN(CCOCCOCCNC(=O)CCC12c3cc(NC(=O)CCCCCCCN)ccc3C(c3ccc(NC(=O)CCCCCCCN)cc31)c1ccc(NC(=O)CCCCCCCN)cc12)C(=O)[C@@H]1C[C@H](N=[N+]=[N-])CN1C(=O)c1ccc(S(=O)(=O)F)cc1 [ARK000031] = +24.1 °C

###

A collection of compounds and their measured Shift melt. Temp.
Tested on: RNA3WJ_0.0.0_5IB_3FAM (3WJ_0.0.0_5IB_3FAM RNA construct)
assay-procedure: Thermal shift binding assay
applied-conditions: RNA sequence 3WJ_0.0.0_5IB_FAM; with cmpd minus without cmpd

Some compounds with recorded Shift melt. Temp.:
smiles_string=CC(C)(C)OC(=O)NCCCC[C@H](NC(=O)OC(C)(C)C)C(=O)Nc1ccc2c(c1)C1(CCC(=O)NCCOCCOCCN)c3cc(NC(=O)[C@@H](CCCCNC(=O)OC(C)(C)C)NC(=O)OC(C)(C)C)ccc3C2c2ccc(NC(=O)[C@@H](CCCCNC(=O)OC(C)(C)C)NC(=O)OC(C)(C)C)cc21 measurement_label="Shift melt. Temp." experimental_result="+0.6 °C"
smiles_string=CN(CCCN)CCCNC(=O)c1ccc2c(c1)C1c3cc(C(=O)NCCCN(C)CCCN)ccc3C2c2ccc(C(=O)NCCCN(C)CCCN)cc21 measurement_label="Shift melt. Temp." experimental_result="+24.2 °C"
smiles_string=NCCCCCCCNC(=O)c1ccc2c(c1)C1c3cc(C(=O)NCCCCCCCN)ccc3C2c2ccc(C(=O)NCCCCCCCN)cc21 measurement_label="Shift melt. Temp." experimental_result="+1.6 °C"

The compound CN(CCOCCN(C)C(=O)[C@@H]1C[C@H](N=[N+]=[N-])CN1C(=O)c1ccc(S(=O)(=O)F)cc1)C(=O)CCC12c3cc(NC(=O)CCCCCCCN)ccc3C(c3ccc(NC(=O)CCCCCCCN)cc31)c1ccc(NC(=O)CCCCCCCN)cc12 showed Shift melt. Temp. equal to +4.8 °C

The compound CN(CCOCCN(C)C(=O)[C@@H]1C[C@H](N=[N+]=[N-])CN1C(=O)c1ccc2c(=O)oc(=O)[nH]c2c1)C(=O)CCC12c3cc(NC(=O)CCCCCCCN)ccc3C(c3ccc(NC(=O)CCCCCCCN)cc31)c1ccc(NC(=O)CCCCCCCN)cc12 showed Shift melt. Temp. equal to +0.3 °C

The compound CN(CCOCCOCCNC(=O)CCC12c3cc(NC(=O)CCCCCCCN)ccc3C(c3ccc(NC(=O)CCCCCCCN)cc31)c1ccc(NC(=O)CCCCCCCN)cc12)C(=O)[C@@H]1C[C@H](N=[N+]=[N-])CN1C(=O)c1ccc(S(=O)(=O)F)cc1 showed Shift melt. Temp. equal to +24.1 °C
